# Tested on: HCC1937;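 also: viability read out with the CCK-8 kit in 96-well plates, screening a set of 303 compounds acting on lipid metabolism targets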
# Protocol summary: relative cell viability, compound alone, vs DMSO (fraction of DMSO control); higher = less growth inhibition
# Cond: 72 h
Counter-ions that a name gives are not always drawn.
Please provide measured relative cell viability for the entries that follow.
Give bare numbers.

Before answering, review these 5 worked examples.
[[record]]
molecule = "COc1cc(N(C)C)cc(CN(C)CCc2ccc([N+](=O)[O-])cc2)c1O"
reading = 0.966

[[record]]
molecule = "COc1ccc([C@@H]2OC[C@H]3[C@@H]2CO[C@@H]3c2ccc(O[C@@H]3O[C@H](CO)[C@@H](O)[C@H](O)[C@H]3O)c(OC)c2)cc1OC"
reading = 1.22

[[record]]
molecule = "CC1=C[C@]2(O)O[C@@]3(CC2=C(C)C)[C@@H](C)CC[C@@H]13"
reading = 0.868

[[record]]
molecule = "CCN(CC)C(=O)N1CCN(C)CC1 [Diethylcarbamazine citrate]"
reading = 0.699

[[record]]
molecule = "CCc1ccc(CCOc2ccc(CC3SC(=O)NC3=O)cc2)nc1 (configuration not stated)"
reading = 1.17


Items follow; give relative cell viability for each.
1. CN(CCOc1ccc(CC2SC(=O)NC2=O)cc1)c1ccccn1 (configuration not stated) [Rosiglitazone]
2. CC(C)=CCC(O)C1=CC(=O)c2c(O)ccc(O)c2C1=O (single isomer, unassigned; (+)) [(+)-Shikonin]

Result string:
1: 1.43; 2: 0.2

Items follow; give relative cell viability for each.
1. O=c1oc2ccccc2cc1O [3-Hydroxycoumarin]
2. C[C@H](CCCC(C)(C)O)[C@H]1CC[C@H]2[C@@H]3CC=C4C[C@@H](O)CC[C@]4(C)[C@H]3CC[C@]12C [25-Hydroxycholesterol]
3. CN(C)C(=N)NC(=N)N [Metformin hydrochloride]

Result string:
[1.02, 0.982, 0.98]
